species on record: Rattus norvegicus; experiment: Open TG-GATES - Regimen: Single; format: toxicity, organism-based, Sprague-Dawley; parameters: regimen Single, gender Male, age 6 weeks; conditions: in vivo, po, 0 mg/kg, 24 h, tissue Plasma, route gavage, dose level Control
Exercise: for every item that follows, state its recorded Ca.
Numbers only, in mg/dL.

Below: 5 compounds and their reported Ca.
1) CC(=O)[C@@]1(O)CC[C@H]2[C@@H]3C=C(Cl)C4=CC(=O)CC[C@]4(C)[C@H]3CC[C@@]21C; 10.9
2) CCO; 10.9
3) CN(C/C=C/C#CC(C)(C)C)Cc1cccc2ccccc12; 10.9
4) COc1ccc([C@@H]2Sc3ccccc3N(CCN(C)C)C(=O)[C@@H]2OC(C)=O)cc1; 11.1
5) CN(C)CCCN1c2ccccc2Sc2ccc(Cl)cc21; 10.8

I need Ca for every entry listed below, if you could help.
1. O=c1ccc2ccccc2o1
2. CC(S)C(=O)NCC(=O)O (configuration not stated)
3. Nc1ccc(Cc2ccc(N)cc2)cc1
4. CN(CCOc1ccc(CC2SC(=O)NC2=O)cc1)c1ccccn1.O=C(O)/C=C\C(=O)O (configuration not stated) [ROSIGLITAZONE MALEATE]
5. COc1cc2ncnc(Nc3ccc(F)c(Cl)c3)c2cc1OCCCN1CCOCC1
6. CCCCNC(=O)NS(=O)(=O)c1ccc(C)cc1 [TOLBUTAMIDE]
7. O=C(O)c1ccccc1Nc1ccccc1

## Result
10.8
10.7
10.9
11.5
10.8
11.2
11.2
